Entries and their pIC50
# Tested on: Bel-7402
# experiment notes: Antiproliferative activity against human Bel7402 cells after 72 hrs by MTT assay
# Format: functional, cell-based
# test context: Bel-7402, 72 h
pIC50: −log10 of the molar value.

{"molecule smiles": "C=C1C(=O)[C@]23[C@H](O)[C@H]1CC[C@H]2[C@@]12CO[C@]3(O)[C@@H](O)[C@@H]1C(C)(C)CC[C@@H]2O", "pIC50": "< 5.00"}
{"molecule smiles": "C=C1C(=O)[C@@]23C(=O)OC[C@]4(C=CCC(C)(C)[C@H]4C=O)[C@@H]2CC[C@@H]1[C@H]3OC(=O)c1ccc([N+](=O)[O-])cc1", "pIC50": "< 5.00"}

// next item, pIC50 requested
// query # pIC50 lookup, item C=C1C(=O)[C@@]23C(=O)OC[C@]4([C@@H](OS(C)(=O)=O)CCC(C)(C)[C@H]4C=O)[C@@H]2CC[C@@H]1[C@H]3O
// result < 5.00
